Reported pIC50 values for a set of compounds
experimental target: VR1 nociceptor (Rattus norvegicus, UniProt O35433)
Sequence (O35433 whole entry): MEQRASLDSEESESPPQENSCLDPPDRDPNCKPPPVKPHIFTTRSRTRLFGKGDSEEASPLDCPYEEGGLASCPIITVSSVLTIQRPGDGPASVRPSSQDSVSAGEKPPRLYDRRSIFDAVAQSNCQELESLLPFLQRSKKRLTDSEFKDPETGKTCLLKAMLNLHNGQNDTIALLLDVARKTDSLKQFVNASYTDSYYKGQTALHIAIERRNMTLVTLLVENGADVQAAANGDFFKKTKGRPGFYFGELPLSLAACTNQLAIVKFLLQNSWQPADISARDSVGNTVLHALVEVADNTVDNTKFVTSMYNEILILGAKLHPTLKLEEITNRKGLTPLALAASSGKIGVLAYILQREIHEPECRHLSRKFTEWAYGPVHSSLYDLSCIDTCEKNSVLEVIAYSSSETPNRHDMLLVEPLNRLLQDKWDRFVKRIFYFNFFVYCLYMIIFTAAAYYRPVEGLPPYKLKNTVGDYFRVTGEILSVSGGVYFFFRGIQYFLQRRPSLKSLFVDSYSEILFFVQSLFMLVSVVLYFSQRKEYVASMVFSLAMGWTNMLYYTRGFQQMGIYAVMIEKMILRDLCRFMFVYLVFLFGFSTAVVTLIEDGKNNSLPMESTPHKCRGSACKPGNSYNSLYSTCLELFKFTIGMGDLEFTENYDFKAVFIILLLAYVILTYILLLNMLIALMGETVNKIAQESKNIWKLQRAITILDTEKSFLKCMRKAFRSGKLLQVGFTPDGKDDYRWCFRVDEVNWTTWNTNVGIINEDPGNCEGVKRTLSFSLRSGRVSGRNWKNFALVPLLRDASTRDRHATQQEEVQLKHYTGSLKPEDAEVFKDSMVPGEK
protocol: Blocking of capsaicin-activated ionic current in X. laevis ovocites expressing the VR1 nociceptor (two-microelectrode voltage clamp)
condition set: activated by capsaicin 20 μM, -80 mV, read-out: concentration that inhibited half the VR1 nociceptor response (IC50)
pIC50: −log10 of the molar value.

See these solved cases before continuing.
compound | pIC50
CCN(CC)CCCNCC(=O)N(CCc1ccc(Cl)cc1Cl)CC(=O)N(CCC(C)C)CC(N)=O [compound [7]] | ~4.52
CCN(CC)CCCNCC(=O)N(CCc1ccc(Cl)cc1Cl)CC(=O)N(CCc1ccc(Cl)cc1Cl)CC(N)=O [compound [8]] | ~5.70

// switching to the query compound
Qu. Query: pIC50; subject: CN1CCCC1CCNCC(=O)N(CCc1ccc(Cl)cc1Cl)CC(=O)N(CCc1ccc(Cl)cc1Cl)CC(N)=O (racemic) [compound [4]]
Ans. ~6.00

###

IC50 values for the compounds below.
experimental target: NMDA receptor (NR1 and NR2A subunities) (Homo sapiens, UniProt Q05586+Q12879)
Sequence (Q12879 23-1464, other chains not shown): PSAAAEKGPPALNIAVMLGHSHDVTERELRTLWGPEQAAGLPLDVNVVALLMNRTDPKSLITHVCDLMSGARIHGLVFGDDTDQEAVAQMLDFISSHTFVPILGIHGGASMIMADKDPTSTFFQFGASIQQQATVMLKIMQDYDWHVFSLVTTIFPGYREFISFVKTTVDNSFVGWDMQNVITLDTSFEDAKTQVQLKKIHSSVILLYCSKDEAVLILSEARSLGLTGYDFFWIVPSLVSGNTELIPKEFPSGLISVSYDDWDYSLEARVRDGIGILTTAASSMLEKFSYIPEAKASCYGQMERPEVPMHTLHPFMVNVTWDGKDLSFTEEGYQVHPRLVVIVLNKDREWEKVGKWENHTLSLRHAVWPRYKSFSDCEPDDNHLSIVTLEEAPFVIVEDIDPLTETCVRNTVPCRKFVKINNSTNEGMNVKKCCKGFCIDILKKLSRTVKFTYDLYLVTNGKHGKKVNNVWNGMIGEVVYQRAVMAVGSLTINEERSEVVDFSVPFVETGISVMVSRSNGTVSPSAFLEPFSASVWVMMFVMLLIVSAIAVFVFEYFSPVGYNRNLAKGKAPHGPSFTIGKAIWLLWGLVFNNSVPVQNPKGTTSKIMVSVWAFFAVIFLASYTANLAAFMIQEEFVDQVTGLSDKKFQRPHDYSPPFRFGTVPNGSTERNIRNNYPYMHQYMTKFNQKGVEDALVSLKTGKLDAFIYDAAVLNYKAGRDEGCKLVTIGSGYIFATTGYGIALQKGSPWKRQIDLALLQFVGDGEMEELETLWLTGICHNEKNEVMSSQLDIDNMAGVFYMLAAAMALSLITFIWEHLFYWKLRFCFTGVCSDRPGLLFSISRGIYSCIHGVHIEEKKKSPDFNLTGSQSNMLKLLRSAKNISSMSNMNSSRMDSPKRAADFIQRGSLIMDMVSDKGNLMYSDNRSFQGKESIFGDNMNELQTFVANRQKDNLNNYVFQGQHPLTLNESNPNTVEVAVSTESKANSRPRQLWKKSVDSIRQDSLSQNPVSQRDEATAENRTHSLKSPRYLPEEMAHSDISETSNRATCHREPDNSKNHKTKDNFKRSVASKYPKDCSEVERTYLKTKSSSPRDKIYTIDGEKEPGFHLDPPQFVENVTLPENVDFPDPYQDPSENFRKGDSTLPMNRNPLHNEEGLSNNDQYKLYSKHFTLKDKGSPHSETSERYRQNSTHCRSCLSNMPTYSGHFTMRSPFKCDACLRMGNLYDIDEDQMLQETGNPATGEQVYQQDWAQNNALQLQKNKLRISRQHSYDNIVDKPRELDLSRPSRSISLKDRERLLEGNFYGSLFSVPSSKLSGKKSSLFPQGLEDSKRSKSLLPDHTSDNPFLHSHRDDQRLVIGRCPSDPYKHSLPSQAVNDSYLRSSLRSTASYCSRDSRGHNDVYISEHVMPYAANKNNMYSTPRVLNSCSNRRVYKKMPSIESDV
protocol: Blocking of L-glutamate/glycine-activated ionic current in X. laevis ovocites expressing the NMDA receptor (two-microelectrode voltage clamp)
condition set: activated by L-glutamate/glycine 100 μM/20 μM, -80 mV, read-out: concentration that inhibited half the NMDA receptor response (IC50)

compound | experimental target | IC50
CCN(CC)CCCN(CC(=O)N(CCc1ccccn1)CC(N)=O)C(=O)CNCCC(c1ccccc1)c1ccccc1 [compound [10]] | NMDA receptor (NR1 and NR2A subunities) (Homo sapiens, UniProt Q05586+Q12879) | ~2000 nM
CCN(CC)CCCN(CC(=O)N(CCn1ccnc1)CC(N)=O)C(=O)CNCCC(c1ccccc1)c1ccccc1 [compound [11]] | NMDA receptor (NR1 and NR2A subunities) (Homo sapiens, UniProt Q05586+Q12879) | ~10000 nM

Now let's try a different one.
Qu. Hello, I am looking for reported IC50 with NMDA receptor (NR1 and NR2A subunities) (Homo sapiens, UniProt Q05586+Q12879) for CCN(CC)CCCN(CC(=O)N(CCc1ccc(Cl)cc1Cl)CC(N)=O)C(=O)CNCCC(c1ccccc1)c1ccccc1 [compound [9]] . Could you help?
Ans. 1000 nM
